Data provenance: the supplement of paper PMC6555819

Here the recorded PBM binding z-score is given for each entry.
- System: RARb:RXRa (NR concentration 270 nM, RXRa partner concentration 90 nM)
- Assay explanation: PBM binding z-score (relative to random genomic background probes); higher = stronger binding; sequences stand for … in GC…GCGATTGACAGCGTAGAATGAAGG
Respond using a number only.

Recorded results for 3 sequences are shown here.
Biopolymer sequence | Observed result
AGAATGAGGTTAAGATCAAGGAAACAGAATACAT | 1.88
TTACCAAGGTGGGCTGAGGTCGTTGATCCAACTC | 0.446
CGTCCAAGGTCAAGGTCAGTTAAAGAGACTCGAA | 5.81

`CCGAGAAGGTTATGGGGCATTCAGGCAACGGTGA` has a reported PBM binding z-score of 2.08

So for `GCTGCTAGGTCAACTGATGGTCAGCGAAAGCTCG` , the logged PBM binding z-score turned out to be 4.37

Please fill in: PBM binding z-score reported for `CCGAGTAGTTTATGGGGCATTCAGGCAACGGTGA` = 0.282

Summary for this sequence, `CGCCCAAGGTCAATGCTAGGTCAGTGAAAGCATT` : PBM binding z-score is 5.09

Documented PBM binding z-score of `CATACAGGGTCAGCTAGGCCAGTGTAGGGACGGC` : 3.98
